Overview of reported B*max (maximal binding capacity of fragment D, site 2) across a group of binders:
- target_desc: T1, Fibrinogen fragment D (human, UniProt P02671 130-216; P02675 164-491; P02679 114-432, limits assumed)
- T1 construct: domain: Fragment D (or D-domain); Made by plasmin digestion of human fibrinogen and purified on GPRPAA beads; holds the C-terminal polymerization pockets without the N-terminal knobs; immobilised by amine coupling on the SPR chip; also called D-domain
- T1 sequence (looked up) 1: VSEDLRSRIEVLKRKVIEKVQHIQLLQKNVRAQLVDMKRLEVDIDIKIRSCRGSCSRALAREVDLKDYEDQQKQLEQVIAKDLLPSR
- T1 sequence (looked up) 2: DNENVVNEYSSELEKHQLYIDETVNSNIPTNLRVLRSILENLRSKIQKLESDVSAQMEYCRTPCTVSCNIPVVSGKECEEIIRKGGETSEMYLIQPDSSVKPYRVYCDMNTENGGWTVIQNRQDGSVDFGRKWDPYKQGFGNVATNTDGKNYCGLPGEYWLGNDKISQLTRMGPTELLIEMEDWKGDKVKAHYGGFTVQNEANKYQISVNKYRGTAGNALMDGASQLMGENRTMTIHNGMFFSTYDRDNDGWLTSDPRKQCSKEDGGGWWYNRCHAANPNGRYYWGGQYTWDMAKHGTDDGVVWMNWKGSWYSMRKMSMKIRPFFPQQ
- T1 sequence (looked up) 3: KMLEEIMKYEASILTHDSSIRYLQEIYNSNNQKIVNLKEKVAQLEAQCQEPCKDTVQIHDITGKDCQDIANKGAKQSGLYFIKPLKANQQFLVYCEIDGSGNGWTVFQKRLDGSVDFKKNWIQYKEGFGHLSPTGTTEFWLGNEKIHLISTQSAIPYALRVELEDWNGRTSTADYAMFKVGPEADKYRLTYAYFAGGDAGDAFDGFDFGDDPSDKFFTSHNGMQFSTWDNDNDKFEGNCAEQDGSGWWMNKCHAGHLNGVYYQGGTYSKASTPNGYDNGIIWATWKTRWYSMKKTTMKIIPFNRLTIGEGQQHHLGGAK
- assay: SPR, fragment D immobilised, heterogeneous ligand model, site 2
- Protocol: Upon stabilization of the baseline signal, kinetic binding experiments were run in duplicate with the peptide variants as the flow analytes. […] To investigate the dynamic binding profile between the fibrinogen/fibrin holes and knob peptide variants, SPR was employed. Binding interactions were evaluated by flowing the knob peptides over an immobilized surface of fragment D (FIG. 8). […]
endpoint: B*max (maximal binding capacity of fragment D, site 2) (RU)

{"columns": ["binder", "measure_unit", "result_number"],
 "data": [
  ["GPRPFPAC (Synthetic (GenScript); also called knob 'A' peptide)", "RU", 11.3],
  ["GPRPAAC (Synthetic (GenScript); kept reduced with immobilised TCEP; also called gold standard GPRP mimic; knob 'A' peptide)", "RU", 5.91],
  ["GPRPPERC (Synthetic (GenScript); also called knob 'A' peptide)", "RU", 5.92],
  ["GPRVVERC (Synthetic (GenScript); also called knob 'A' peptide)", "RU", 10.3],
  ["GPRVVAAC (Synthetic (GenScript); also called knob 'A' peptide)", "RU", 13.5]
]}
